test system: SW-620 colon; assay: NCI-60 one-dose screen, 48 h; settings: 10 µM unless noted
The panel holds about 83,000 compounds, 20% with a hit somewhere; the sample as a whole holds those more often. Active and inactive are the calls of the source. The calls were made as follows: active = growth percent below 10; inactive = the rest.
Reply using exactly one outcome from 1 (active), -1 (inactive)

Past entries and their recorded results:
Ask: Returns: the outcome recorded for O=C(NCc1ccccc1)Nc1ccccc1CNc1nc(Nc2ccc(OCCN3CCCC3)cc2)ncc1Cl in this assay.
Reply: -1

Ask: I would be grateful if you could indicate the recorded call for CCOC(=O)c1[nH]c(=O)c2c(C)nc(-c3ccccc3)cc2c1O .
Reply: -1

Ask: Hi, do you know how Brc1ccc2[nH]cc(-c3nonc3-c3c[nH]c4ccccc34)c2c1 came out in this test?
Reply: -1

Ask: Dear all, I need the recorded test outcome for COC(=O)c1c2c(c(C)[n+]([O-])c1C)C(=O)C=C(NCc1ccc(OC)cc1)C2=O , thank you.
Reply: 1

Ask: Record lookup: outcome of this test for CC1Cc2c(Cl)ncnc2N(C)c2ccc(F)cc21 (configuration not stated) ?
Reply: -1

Ask: Name the outcome recorded for C=CCc1c2c(c(OC)c3ccoc13)C(=O)/C(=C/c1ccccc1OC)O2 in the assay.
Reply: -1

Ask: Record request — test call for O=C(Nc1cc(Cl)ccc1O)c1ccc(Nc2ccnc(C(F)(F)F)c2)cc1
Reply: -1

Ask: Can you look up the reported call for O=C(CSc1nc2sc3c(c2c(=O)n1-c1ccccc1)CCCCC3)N/N=C/c1ccc(F)cc1 for me?
Reply: -1

Next:
Ask: Can you look up the reported call for S=C(Nc1ccc(-c2nc(N3CCOCC3)c3cccn3n2)cc1)Nc1cccnc1 for me?
Reply: -1

Ask: Each compound tested received a call. Report the one for N#C/C(=C\c1ccc2ccccc2c1)c1cc2ccccc2[nH]1 .
Reply: -1

----------
Quick reference: growth of the listed items.
tested on: MCF7 breast; experiment: NCI-60 one-dose screen, 48 h (100 = growth as untreated, 0 = no growth, -100 = all killed); settings: 10 µM unless noted
This is part of a sample that, as a whole, favours compounds with a hit. Of some 83,000 tested, about 20% had one in any assay. Calls of active or inactive are those of the source. Rule for the calls: active = growth percent below 10; inactive = the rest.

For orientation, consider the following solved cases.
Ask: # input compound: CCCCCOc1ccc(C(=O)/C(Br)=C/C(=O)O)cc1 ; wanted: its growth
Reply: 91.7% (inactive)

Ask: Quick one: growth for CN(C)c1ccc(/C=C/C(=O)c2ccc(-n3cc(CN4CCN(c5cc6c(cc5F)c(=O)c(C(=O)O)cn6C5CC5)CC4)nn3)cc2)cc1 ?
Reply: 24.2% (inactive)

Ask: Would you kindly share the measured growth for COc1ccc(NC(=O)c2sc3nc(C)c(C(=O)/C=C/c4cccc(OC)c4)cc3c2N)cc1 ?
Reply: 14.3% (inactive)

Next, consider the following compound.
Ask: Which growth value belongs to COc1ccc(-c2cc(-c3ccc(Cl)cc3)c(C#N)c(=O)n2CCCCC(=O)Nc2ccccc2N)cc1 ?
Reply: 41.6% (inactive)

----------
Reported growth values for a set of molecules
Test system: U251 CNS
Experiment: NCI-60 one-dose screen, 48 h (100 = growth as untreated, 0 = no growth, -100 = all killed)
Conditions: 10 µM unless noted
Protocol: Growth inhibition of the U251 human tumor cell line is measured as a screen for anti-cancer activity. Cells are grown in 96 well plates and exposed to the test compound for 48 hours. Compounds are tested at a single concentration, which is 10^-5 M for most compounds. The reported endpoint is percent growth (GI% or GIPRCNT), where numbers from 0 - 100% represent growth inhibition, and numbers from -100% - 0 represent cell death. For example, a value of 40 represents 60% growth inhibition. […]
Compounds without any hit were thinned out: in the full panel of roughly 83,000, 20% have a hit. Active and inactive are the calls of the source. How the source made its calls: active means growth percent below 10; inactive means the rest.

Please review the entries below; each comes with its answer.
Ask: Item CCOC(=O)C1=C(NC)OCC1=O has what recorded growth?
Reply: 96.5% (inactive)

Ask: Requested read-out: growth. Entry: Cc1ccc2c(n1)C(=O)c1[nH]c3ccccc3c1C2=O
Reply: 40.9% (inactive)

Ask: # query: growth of entry O=C1Nc2ccc(I)cc2C1=O
Reply: 93.8% (inactive)

Others:
Ask: Requested field: growth. Item: CCCCCCCCCCCCCCCC(N)c1ccccc1 (stereo unspecified)
Reply: -93.2% (active)

Ask: Which growth is reported for this molecule? CCOC(=O)c1c(C)c2c(n1C)CSc1cc(C(=O)c3ccccc3)c(=O)[nH]c1-2
Reply: 97.8% [100 µM] (inactive)

Ask: Returns the measured growth for the input molecule. Input: O=c1oc2c(cnc3ccccc32)cc1-c1ccsc1
Reply: 93.3% (inactive)

Ask: Please give the measured growth for this molecule: O=S(=O)(Nc1ccccc1)c1ccc(C2CC3(Cl)C(Cl)=C(Cl)C2(Cl)C3(Cl)Cl)cc1 (stereo unspecified)
Reply: 39.8% (inactive)

Ask: Could you share which growth value was measured for N#Cc1cccc(NC(=O)c2oc3ccccc3c2-c2cnn(-c3ccccc3)c2)c1 ?
Reply: 85.3% [50 µM] (inactive)

Ask: Given the molecule CN1C(=O)/C(=C/c2ccc(C(=O)Nc3ncc(Cc4ccc(Cl)cc4)s3)cc2)SC1=S , what is its reported growth?
Reply: 61.7% (inactive)

Ask: For the molecule COC(=O)c1cc(-c2ccccc2)[nH]c1N/N=C/c1c(Cl)cccc1Cl , what growth is on record?
Reply: 12.1% (inactive)

Ask: Value lookup for growth; key = Cn1cc(-c2csc(-c3c[nH]c4ccc(Br)cc34)n2)c2cnccc21
Reply: -85.8% (active)

Ask: Entry Fc1cccc(CNc2c3ccccc3nc3ccccc23)c1F has what growth?
Reply: 65.6% (inactive)

Ask: For the molecule shown here, O=S(=O)(Nc1cc(Br)c(O)c2ccccc12)c1ccc(F)cc1 , give the reported growth.
Reply: 35.4% (inactive)

Ask: growth lookup needed for CS(=O)(=O)c1cccc(-c2c(-c3cccc(OS(N)(=O)=O)c3)nc3sccn23)c1 , thanks.
Reply: 100% (inactive)

Ask: Sample CCOC(=O)CNP(=O)(OC[C@@H](Cc1ccccc1)NC(=O)c1cc2ccccc2s1)Oc1ccccc1 (stereo partly specified) — what was its growth?
Reply: 66.5% (inactive)

----------
tested on: UO-31 renal; assay: NCI-60 one-dose screen, 48 h (100 = growth as untreated, 0 = no growth, -100 = all killed); conditions: 10 µM unless noted
Compounds without any hit were thinned out: in the full panel of roughly 83,000, 20% have a hit.
attribute-measured: growth (%)
Give the value in % but do not write % after it.

Ask: # query: growth of entry Cc1nc2sc(C(=O)Nc3ccccc3)c(N)c2cc1C(=O)c1ccccc1
Reply: 59.5

Ask: Entry under review: CCOC(=O)c1c2c(n3ccc(C)cc13)C(=O)c1ccccc1C2=O . Reported growth?
Reply: 60.6

Ask: Fill in: growth of O=C(O)[C@@H]1c2ccccc2-c2ccccc2[C@H]1C(=O)O is ___
Reply: 66.3

Ask: So what's the measured growth for this one? Cc1ccc(Cl)cc1Nc1nc(C(F)(F)F)ccc1C(=O)N/N=C/c1cccnc1
Reply: 15

***
Ask: # growth lookup, item Cc1ccc(-c2csc(NC(=O)CN3CCN(c4cc5c(cc4F)c(=O)c(C(=O)O)cn5C4CC4)CC3)n2)cc1
Reply: 12.1

Ask: Give its growth value. Item: Fc1cc(F)cc(C(c2c[nH]c3ccccc23)c2c[nH]c3ccccc23)c1
Reply: 52.9

----------
system: LOX IMVI melanoma; assay: NCI-60 one-dose screen, 48 h; conditions: 10 µM unless noted
The panel holds about 83,000 compounds, 20% with a hit somewhere; the sample as a whole holds those more often. Activity calls are given as the source filed them. How the source made its calls: active means growth percent below 10; inactive means the rest.
Reply using exactly one outcome from YES for active, NO for inactive

Example results:
Ask: What did the test return for CCN(CC)CCOc1ccc(C(=C(C)c2ccc(Cl)cc2)c2ccc(OCCN(CC)CC)cc2)cc1 ?
Reply: YES

Ask: Recorded test outcome, item CO[C@H]1/C=C(/C)CCC[C@H](C)[C@H](O)[C@@H](C)C(=O)C(C)(C)[C@@H](O)CC(=O)O[C@@H]1/C(C)=C/c1csc(C)n1
Reply: NO

Ask: Would you mind telling me which call this test gave Cc1cc2c(O)c(-c3cc(Cl)ccc3Cl)c3sc(=O)oc3c2cc1C ?
Reply: NO

Ask: Recorded test outcome, item Cc1ccc(/C=C2\CN(C(=O)OC(C)(C)C)C/C(=C\c3ccc(C)cc3)C2=O)cc1
Reply: YES

Ask: Hello, I am checking results. What call was entered for O=C(c1ccc(-c2ccccc2)cc1)c1ccc([N+](=O)[O-])cc1 ?
Reply: NO

Ask: Please state the recorded outcome for this compound: COc1ccc(C/C(C)=C(/c2ccc(OCCN3CCCCC3)cc2)c2ccc(OC(=O)NCc3ccccc3)cc2)cc1
Reply: YES

Next:
Ask: Each compound tested received a call. Report the one for CCN(CC)CCCN1C(=O)c2c(c(C)c3c(oc4cc(O)ccc43)c2C)C1=O .
Reply: YES

Ask: Dear all, I need the recorded test outcome for Cc1ccccc1NC(=O)c1sc2nc(C)c(C(=O)/C=C/c3ccccc3)cc2c1N , thank you.
Reply: YES

Ask: Write down the call the test reported for this compound. Item: COc1ccc(/C=C2\C(=O)N=C3N2NC(c2cc(Br)ccc2O)C=C(C)N3c2ccccc2)cc1 (stereo not given)
Reply: NO

Ask: Please let me know the test result on file for O=C(O)CCCN1C(=O)/C(=C/C(Cl)=C/c2ccccc2)SC1=S .
Reply: YES
